Assay: PK of single agents vs fixed dose combinations (FDC), single oral dose in healthy volunteers
Type: in vivo, human
Details: Arm 2 (FDC02) vs reference (Arm 1)
assay readout: Least Square Means Ratio, Cmax (%)

[[record]]
structure = "C[C@]1(O)[C@H](n2ccc(=O)[nH]c2=O)O[C@](F)(CO)[C@H]1O"
experimental_value = 133.00

[[record]]
structure = "C[C@H](NP(=O)(O)OC[C@@]1(F)O[C@@H](n2ccc(=O)[nH]c2=O)[C@](C)(O)[C@@H]1O)C(=O)O"
experimental_value = 102.81

[[record]]
structure = "CC(C)OC(=O)[C@H](C)N[P@](=O)(OC[C@@]1(F)O[C@@H](n2ccc(=O)[nH]c2=O)[C@](C)(O)[C@@H]1O)Oc1ccccc1"
experimental_value = 109.68


====

Assay: PK of single agents vs fixed dose combinations (FDC), single oral dose in healthy volunteers
Type: in vivo, human
Settings: human, plasma, oral, Arm 1 (reference): single agents together; read-out: tmax (median [range])
assay readout: Tmax (h)

[[record]]
molecule = "COC(=O)N[C@H](C(=O)N1[C@H](c2nc3cc(-c4cc5ccc4CCc4ccc(c(-c6ccc7[nH]c([C@@H]8C[C@@H]9CCCC[C@@H]9N8C(=O)[C@@H](NC(=O)OC)C(C)C)nc7c6)c4)CC5)ccc3[nH]2)C[C@@H]2CCCC[C@@H]21)C(C)C"
assay_readout = "Tmax"
experimental_value = 6

[[record]]
molecule = "C[C@]1(O)[C@H](n2ccc(=O)[nH]c2=O)O[C@](F)(CO)[C@H]1O"
assay_readout = "Tmax"
experimental_value = 4

[[record]]
molecule = "C[C@H](NP(=O)(O)OC[C@@]1(F)O[C@@H](n2ccc(=O)[nH]c2=O)[C@](C)(O)[C@@H]1O)C(=O)O"
assay_readout = "Tmax"
experimental_value = 3

[[record]]
molecule = "COc1ccc2c(O[C@@H]3C[C@H]4C(=O)N[C@]5(C(=O)NS(=O)(=O)C6CC6)C[C@H]5/C=C\\CCCCN(C)C(=O)[C@@H]4C3)cc(-c3nc(C(C)C)cs3)nc2c1C [SMV, Simeprevir, reference compound]"
assay_readout = "Tmax"
experimental_value = 6


====

Assay: PK of single agents vs fixed dose combinations (FDC), single oral dose in healthy volunteers
Format: in vivo, human
Conditions: Arm 4: FDC01
# t1/2term (mean ± SD) per entry
assay readout: t1/2term (mean ± SD) (h)

[[record]]
compound = "C[C@]1(O)[C@H](n2ccc(=O)[nH]c2=O)O[C@](F)(CO)[C@H]1O"
experimental_value = 18.3

[[record]]
compound = "COC(=O)N[C@H](C(=O)N1[C@H](c2nc3cc(-c4cc5ccc4CCc4ccc(c(-c6ccc7[nH]c([C@@H]8C[C@@H]9CCCC[C@@H]9N8C(=O)[C@@H](NC(=O)OC)C(C)C)nc7c6)c4)CC5)ccc3[nH]2)C[C@@H]2CCCC[C@@H]21)C(C)C"
experimental_value = 167.8

[[record]]
compound = "C[C@H](NP(=O)(O)OC[C@@]1(F)O[C@@H](n2ccc(=O)[nH]c2=O)[C@](C)(O)[C@@H]1O)C(=O)O"
experimental_value = 2.5

[[record]]
compound = "CC(C)OC(=O)[C@H](C)N[P@](=O)(OC[C@@]1(F)O[C@@H](n2ccc(=O)[nH]c2=O)[C@](C)(O)[C@@H]1O)Oc1ccccc1"
experimental_value = 0.6

[[record]]
compound = "COc1ccc2c(O[C@@H]3C[C@H]4C(=O)N[C@]5(C(=O)NS(=O)(=O)C6CC6)C[C@H]5/C=C\\CCCCN(C)C(=O)[C@@H]4C3)cc(-c3nc(C(C)C)cs3)nc2c1C [SMV, Simeprevir, reference compound]"
experimental_value = 8.5


====

Test: PK of single agents vs fixed dose combinations (FDC), single oral dose in healthy volunteers
Format: in vivo, human
Settings: Arm 4 (FDC01) vs reference (Arm 1)
assay readout: Least Square Means Ratio, Cmax (%)

[[record]]
compound = "C[C@H](NP(=O)(O)OC[C@@]1(F)O[C@@H](n2ccc(=O)[nH]c2=O)[C@](C)(O)[C@@H]1O)C(=O)O"
measurement_units = "%"
experimental_value = 123.77

[[record]]
compound = "CC(C)OC(=O)[C@H](C)N[P@](=O)(OC[C@@]1(F)O[C@@H](n2ccc(=O)[nH]c2=O)[C@](C)(O)[C@@H]1O)Oc1ccccc1"
measurement_units = "%"
experimental_value = 145.56

[[record]]
compound = "C[C@]1(O)[C@H](n2ccc(=O)[nH]c2=O)O[C@](F)(CO)[C@H]1O"
measurement_units = "%"
experimental_value = 121.37

[[record]]
compound = "COC(=O)N[C@H](C(=O)N1[C@H](c2nc3cc(-c4cc5ccc4CCc4ccc(c(-c6ccc7[nH]c([C@@H]8C[C@@H]9CCCC[C@@H]9N8C(=O)[C@@H](NC(=O)OC)C(C)C)nc7c6)c4)CC5)ccc3[nH]2)C[C@@H]2CCCC[C@@H]21)C(C)C"
measurement_units = "%"
experimental_value = 163.29

[[record]]
compound = "COc1ccc2c(O[C@@H]3C[C@H]4C(=O)N[C@]5(C(=O)NS(=O)(=O)C6CC6)C[C@H]5/C=C\\CCCCN(C)C(=O)[C@@H]4C3)cc(-c3nc(C(C)C)cs3)nc2c1C [SMV, Simeprevir, reference compound]"
measurement_units = "%"
experimental_value = 108.22


====

Test: Phase-1 drug-drug interaction study in healthy volunteers (Compound (III) 800 mg, SMV 150 mg, Odalasvir 150 mg loading then 50 mg, once daily): plasma PK
Format: in vivo, human
Conditions: both sexes, human, plasma, oral, Group 2, Day 10 (ODV alone); read-out: Cmax
assay readout: Cmax (ng/mL)

[[record]]
structure = "COC(=O)N[C@H](C(=O)N1[C@H](c2nc3cc(-c4cc5ccc4CCc4ccc(c(-c6ccc7[nH]c([C@@H]8C[C@@H]9CCCC[C@@H]9N8C(=O)[C@@H](NC(=O)OC)C(C)C)nc7c6)c4)CC5)ccc3[nH]2)C[C@@H]2CCCC[C@@H]21)C(C)C"
assay_readout = "Cmax"
measurement_units = "ng/mL"
experimental_value = 582


====

# Tmax per entry
Assay: PK of single agents vs fixed dose combinations (FDC), single oral dose in healthy volunteers
Assay type: in vivo, human
Conditions: human, plasma, oral, Arm 3: FDC04; read-out: tmax (median [range])
assay readout: Tmax (h)

[[record]]
compound = "C[C@H](NP(=O)(O)OC[C@@]1(F)O[C@@H](n2ccc(=O)[nH]c2=O)[C@](C)(O)[C@@H]1O)C(=O)O [Compound A-3]"
measurement_units = "h"
experimental_value = 3.5

[[record]]
compound = "COC(=O)N[C@H](C(=O)N1[C@H](c2nc3cc(-c4cc5ccc4CCc4ccc(c(-c6ccc7[nH]c([C@@H]8C[C@@H]9CCCC[C@@H]9N8C(=O)[C@@H](NC(=O)OC)C(C)C)nc7c6)c4)CC5)ccc3[nH]2)C[C@@H]2CCCC[C@@H]21)C(C)C [ODV, Odalasvir]"
measurement_units = "h"
experimental_value = 6

[[record]]
compound = "COc1ccc2c(O[C@@H]3C[C@H]4C(=O)N[C@]5(C(=O)NS(=O)(=O)C6CC6)C[C@H]5/C=C\\CCCCN(C)C(=O)[C@@H]4C3)cc(-c3nc(C(C)C)cs3)nc2c1C [SMV, Simeprevir, reference compound]"
measurement_units = "h"
experimental_value = 6

[[record]]
compound = "C[C@]1(O)[C@H](n2ccc(=O)[nH]c2=O)O[C@](F)(CO)[C@H]1O [Compound A-1]"
measurement_units = "h"
experimental_value = 4


====

Test: PK of single agents vs fixed dose combinations (FDC), single oral dose in healthy volunteers
Type: in vivo, human
Conditions: human, plasma, oral, Arm 3: FDC04, SMV 100 mg + ODV 50 mg (ODV/HPMC-AS L 1/3 w/w) + Compound (III) 800 mg; read-out: Cmax (mean ± SD)
Experimental: SMV (100 mg), ODV (50 mg), and Compound (III) (800 mg) were administered as three different formulations or together as single doses in vivo to healthy volunteers. […] PK parameters, including Cmax, tmax, AUClast, and AUC∞ were measured for Compound (III), ODV, SMV, and metabolites Compound A-I and Compound A-3 for each Arm of the study. […]
# Cmax per entry
assay readout: Cmax (ng/mL)

[[record]]
compound = "COC(=O)N[C@H](C(=O)N1[C@H](c2nc3cc(-c4cc5ccc4CCc4ccc(c(-c6ccc7[nH]c([C@@H]8C[C@@H]9CCCC[C@@H]9N8C(=O)[C@@H](NC(=O)OC)C(C)C)nc7c6)c4)CC5)ccc3[nH]2)C[C@@H]2CCCC[C@@H]21)C(C)C"
experimental_value = 301

[[record]]
compound = "C[C@H](NP(=O)(O)OC[C@@]1(F)O[C@@H](n2ccc(=O)[nH]c2=O)[C@](C)(O)[C@@H]1O)C(=O)O"
experimental_value = 189

[[record]]
compound = "COc1ccc2c(O[C@@H]3C[C@H]4C(=O)N[C@]5(C(=O)NS(=O)(=O)C6CC6)C[C@H]5/C=C\\CCCCN(C)C(=O)[C@@H]4C3)cc(-c3nc(C(C)C)cs3)nc2c1C [SMV, Simeprevir, reference compound]"
experimental_value = 906

[[record]]
compound = "C[C@]1(O)[C@H](n2ccc(=O)[nH]c2=O)O[C@](F)(CO)[C@H]1O"
experimental_value = 598

